molecular target: NF-kB p50/p50 homodimer (NFKB1) (Homo sapiens, UniProt P19838 P19838:1-433); assay: EMSA; competition vs 32P 113/114 probe; settings: protein: extract; tags: none; nuclear extract of LPS-stimulated THP-1 cells; chain copies: 2 (stated homodimer)
Sequence (P19838 1-433, one chain of several): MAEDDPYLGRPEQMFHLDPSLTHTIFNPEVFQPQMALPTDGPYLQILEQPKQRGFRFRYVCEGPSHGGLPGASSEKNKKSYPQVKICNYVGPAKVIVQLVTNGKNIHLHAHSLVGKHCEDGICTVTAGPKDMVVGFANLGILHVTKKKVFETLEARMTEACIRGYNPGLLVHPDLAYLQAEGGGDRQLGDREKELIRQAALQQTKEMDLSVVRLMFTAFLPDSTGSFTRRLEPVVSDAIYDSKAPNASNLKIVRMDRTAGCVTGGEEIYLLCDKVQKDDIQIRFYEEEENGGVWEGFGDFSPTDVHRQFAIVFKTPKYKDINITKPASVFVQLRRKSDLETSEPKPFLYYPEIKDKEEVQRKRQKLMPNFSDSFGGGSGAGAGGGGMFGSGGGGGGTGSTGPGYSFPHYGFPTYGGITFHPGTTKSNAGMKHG
measured_quantity: IC50 (fold molar excess)
The response must be a number in fold molar excess with no trailing unit.

# binder, output_unit, IC50
data = [
    ("decoy 153/154 E-Z (dsDNA) DNA 1: AGTTGAGGACTTTCCAGGC DNA 2: GCCTGGAAAGTCCTCAACT", "fold molar excess", 96),
]

From here, focus on the item given below.
**Q:** For 153/154 PO/PS (dsDNA, strand 153 PO; strand 154 full PS) DNA 1: AGTTGAGGACTTTCCAGGC DNA 2: GCCTGGAAAGTCCTCAACT , write its IC50.
**A:** 5
